Assay: In vivo PK study in CD-1 male mice (plasma)
Design: species or system CD-1 mice
Details: mouse, plasma; male CD-1 mice, IP, 50 mg/kg, n = 3
Recorded endpoint: half-life (h)

• CC(C)N(Cc1ccc(C(=O)NO)cc1F)S(=O)(=O)c1cc(F)c(F)c(F)c1F [NN-429] = 3.53

The measurements presented in this section are drawn from paper PMC9692247.
